molecular target: UniProt Q01726; test: Competitive inhibition binding assay, 125I-NDP-α-MSH, hMC1-R membranes; conditions: 1 μM test compound; 0.4 nM 125I-NDP-α-MSH; mean of triplicate; results less than 0% reported as 0%; read-out: Inhibition at 1 μM MC1-R (human)
Sequence (Q01726 whole entry): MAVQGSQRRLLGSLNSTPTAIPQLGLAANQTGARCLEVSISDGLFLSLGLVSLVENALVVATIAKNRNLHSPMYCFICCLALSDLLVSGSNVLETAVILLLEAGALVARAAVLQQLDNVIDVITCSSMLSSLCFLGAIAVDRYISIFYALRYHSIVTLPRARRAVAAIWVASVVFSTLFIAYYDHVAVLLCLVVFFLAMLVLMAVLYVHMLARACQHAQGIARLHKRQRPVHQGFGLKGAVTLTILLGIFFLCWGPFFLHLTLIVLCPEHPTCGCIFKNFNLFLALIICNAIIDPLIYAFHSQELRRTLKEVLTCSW
measurement.label: inhibition at 1 µM (%)

Here's what some known entries look like.
N[C@H](Cc1ccc(Cl)cc1Cl)C(=O)N1C[C@H](Cc2ccccc2)NC[C@H]1Cc1ccc2ccccc2c1 :: 0
N[C@H](Cc1ccccc1)C(=O)N1C[C@H](Cc2ccccc2)NC[C@H]1Cc1ccccc1 :: 0
N[C@@H](Cc1ccccc1)C(=O)N1C[C@H](Cc2ccccc2)NC[C@H]1Cc1ccc2ccccc2c1 :: 6
N[C@H](Cc1ccc2ccccc2c1)C(=O)N1C[C@H](Cc2ccccc2)NC[C@H]1Cc1ccc2ccccc2c1 :: 10

(P) O=C(CCc1ccc(Cl)cc1Cl)N1C[C@H](Cc2ccccc2)NC[C@H]1Cc1ccc2ccccc2c1
(Q) N[C@H](Cc1ccccc1)C(=O)N1C[C@H](Cc2ccccc2)NC[C@H]1Cc1ccc2ccccc2c1
Ask | Look at P and Q . Which one has the lower recorded inhibition at 1 µM number? Select an item and report its label.
Reply | Q

----------
target: hMC5-R (Homo sapiens); experiment: Competitive inhibition binding assay, 125I-NDP-α-MSH, hMC5-R membranes; conditions: 1 μM test compound; 0.4 nM 125I-NDP-α-MSH; mean of triplicate; results less than 0% reported as 0%; read-out: Inhibition at 1 μM MC5-R
measurement.label: inhibition at 1 µM (%)

N[C@H](Cc1ccccc1Cl)C(=O)N1CCN[C@H](Cc2ccc3ccccc3c2)C1 :: 0
N[C@H](Cc1ccc(Cl)cc1Cl)C(=O)N1C[C@H](Cc2ccccc2)NC[C@H]1Cc1ccc2ccccc2c1 :: 22
N[C@H](Cc1ccc(Cl)cc1Cl)C(=O)N1C[C@@H](Cc2ccccc2)NC[C@@H]1Cc1ccccc1 :: 0

(P) N[C@H](Cc1ccc2ccccc2c1)C(=O)N1C[C@H](Cc2ccccc2)NC[C@H]1Cc1ccc2ccccc2c1
(Q) N[C@H](Cc1ccc2ccccc2c1)C(=O)N1C[C@@H](Cc2ccccc2)NC[C@@H]1Cc1ccccc1
(R) N[C@@H](Cc1c[nH]cn1)C(=O)N[C@H](Cc1ccc(Cl)cc1)C(=O)N1CCN[C@H](Cc2ccc3ccccc3c2)C1
(S) N[C@H](Cc1ccccc1)C(=O)N1C[C@H](Cc2ccccc2)NC[C@H]1Cc1ccc2ccccc2c1
Ask | Order these by inhibition at 1 µM, descending, and give the full ranking. Order the labels as requested and give them as your answer.
Reply | P, S, Q, R
(P: 21%, S: 8%, Q: 3%, R: 0%)

----------
biological target: hMC5-R (Homo sapiens, UniProt P33032); test: Competitive inhibition binding assay, 125I-NDP-α-MSH, hMC5-R membranes; conditions: 1 μM test compound; 0.4 nM 125I-NDP-α-MSH; mean of triplicate; results less than 0% reported as 0%; read-out: Inhibition at 1 μM MC5-R
Sequence (P33032 whole entry): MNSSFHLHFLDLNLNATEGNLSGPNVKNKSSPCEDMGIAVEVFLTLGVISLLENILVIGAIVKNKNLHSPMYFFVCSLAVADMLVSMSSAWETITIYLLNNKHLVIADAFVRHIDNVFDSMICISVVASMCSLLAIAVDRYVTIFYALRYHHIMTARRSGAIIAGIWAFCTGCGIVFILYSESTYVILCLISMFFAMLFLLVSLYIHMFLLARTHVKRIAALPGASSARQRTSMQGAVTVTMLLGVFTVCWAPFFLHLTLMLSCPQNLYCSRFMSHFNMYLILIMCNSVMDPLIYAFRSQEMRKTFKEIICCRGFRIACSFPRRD
measurement.label: inhibition at 1 µM (%)

(1) CC(=O)N[C@H](Cc1ccc(Cl)cc1)C(=O)N1CCN[C@H](Cc2ccc3ccccc3c2)C1 [Example 23]
(2) N[C@@H](Cc1ccccc1)C(=O)N1C[C@H](Cc2ccccc2)NC[C@H]1Cc1ccc2ccccc2c1 [Example 4]
Ask | Look at 1 and 2 . Which one has the lower recorded inhibition at 1 µM number? Select an item and report its label.
Reply | 1

(1) O=C(N[C@H](Cc1ccc(Cl)cc1)C(=O)N1CCN[C@H](Cc2ccc3ccccc3c2)C1)[C@H]1Cc2ccccc2CN1 [Example 21]
(2) N[C@@H](COCc1ccccc1)C(=O)N[C@H](Cc1ccccc1Cl)C(=O)N1CCN[C@H](Cc2ccc3ccccc3c2)C1 [Example 14]
Ask | Thinking about recorded inhibition at 1 µM values, which is higher, 1 or 2 ? Select an item and report its label.
Reply | 2
(2: 23%, 1: 14%)

(I) CC(=O)Oc1ccccc1C(=O)N[C@H](Cc1ccc(Cl)cc1)C(=O)N1CCN[C@H](Cc2ccc3ccccc3c2)C1 [Example 27]
(II) N[C@@H](Cc1c[nH]cn1)C(=O)N[C@H](Cc1ccccc1Cl)C(=O)N1CCN[C@H](Cc2ccc3ccccc3c2)C1 [Example 12]
Ask | Thinking about recorded inhibition at 1 µM values, which is higher, I or II ? Select an item and report its label.
Reply | II
(II: 12%, I: 0%)
